Recorded Dmax for the following compounds
- assayTarget: BRG1 (Homo sapiens)
- Construct: either BRM primary antibody (Cell signaling Cat #11966) or BRG primary antibody (Abcam, ab 110641); endogenous in cells; host or cells: SW1573
- Sequence (P51532 whole entry): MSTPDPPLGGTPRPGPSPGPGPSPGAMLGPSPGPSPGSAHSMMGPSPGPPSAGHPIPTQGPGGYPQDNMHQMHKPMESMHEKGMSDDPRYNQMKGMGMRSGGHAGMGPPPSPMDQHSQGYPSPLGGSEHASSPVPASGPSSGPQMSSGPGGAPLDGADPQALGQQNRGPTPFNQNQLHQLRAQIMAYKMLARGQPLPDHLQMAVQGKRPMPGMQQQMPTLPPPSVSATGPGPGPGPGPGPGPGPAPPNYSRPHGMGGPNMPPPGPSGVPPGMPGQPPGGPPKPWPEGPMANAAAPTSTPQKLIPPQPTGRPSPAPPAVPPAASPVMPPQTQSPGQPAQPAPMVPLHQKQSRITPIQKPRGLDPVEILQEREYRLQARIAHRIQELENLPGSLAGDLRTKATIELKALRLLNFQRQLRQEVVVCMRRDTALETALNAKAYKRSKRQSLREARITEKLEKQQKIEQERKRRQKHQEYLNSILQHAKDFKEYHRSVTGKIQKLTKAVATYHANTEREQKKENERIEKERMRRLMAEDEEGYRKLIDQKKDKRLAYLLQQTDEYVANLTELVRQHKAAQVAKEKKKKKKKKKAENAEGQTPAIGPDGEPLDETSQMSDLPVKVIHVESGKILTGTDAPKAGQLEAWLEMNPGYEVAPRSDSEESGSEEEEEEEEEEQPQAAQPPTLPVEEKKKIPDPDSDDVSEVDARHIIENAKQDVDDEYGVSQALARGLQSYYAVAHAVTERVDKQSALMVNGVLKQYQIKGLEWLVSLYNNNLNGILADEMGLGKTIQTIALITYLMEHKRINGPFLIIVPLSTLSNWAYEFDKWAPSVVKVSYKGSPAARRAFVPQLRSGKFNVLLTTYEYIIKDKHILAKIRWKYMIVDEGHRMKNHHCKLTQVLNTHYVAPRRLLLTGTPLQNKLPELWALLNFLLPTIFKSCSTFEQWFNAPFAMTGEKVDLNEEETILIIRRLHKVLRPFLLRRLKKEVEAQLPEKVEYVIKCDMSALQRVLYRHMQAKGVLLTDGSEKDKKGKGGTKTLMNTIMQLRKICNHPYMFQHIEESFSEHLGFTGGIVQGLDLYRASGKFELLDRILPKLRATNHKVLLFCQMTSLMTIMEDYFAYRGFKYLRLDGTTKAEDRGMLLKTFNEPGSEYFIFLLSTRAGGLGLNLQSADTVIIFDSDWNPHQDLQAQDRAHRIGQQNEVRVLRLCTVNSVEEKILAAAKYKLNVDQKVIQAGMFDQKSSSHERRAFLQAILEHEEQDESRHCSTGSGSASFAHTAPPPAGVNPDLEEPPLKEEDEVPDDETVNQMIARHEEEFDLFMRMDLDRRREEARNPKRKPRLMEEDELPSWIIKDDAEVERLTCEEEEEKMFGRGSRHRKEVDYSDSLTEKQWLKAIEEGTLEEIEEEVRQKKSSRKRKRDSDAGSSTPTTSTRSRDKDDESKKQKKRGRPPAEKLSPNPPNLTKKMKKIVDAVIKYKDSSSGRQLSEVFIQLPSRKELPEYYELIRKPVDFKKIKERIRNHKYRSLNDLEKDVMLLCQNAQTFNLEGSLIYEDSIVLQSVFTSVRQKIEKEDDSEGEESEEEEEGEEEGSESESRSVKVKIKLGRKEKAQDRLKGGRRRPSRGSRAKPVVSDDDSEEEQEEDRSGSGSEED
- assayName: Immunofluorescence assay for BRG1 degradation in SW1573 cells
- Assay type: cell-based
- experimentalConditions: SW1573, 20 h, 20 hours incubation, normalized to a known degrader control, read-out: BRG1 IF Degradation Sinf (%)

Some compounds with recorded Dmax:
Nc1nnc(-c2ccccc2O)cc1N1CC2CCC(C1)N2c1ccnc(C#CCN2CCC(CO)CC2)c1 [Compound 45]; 30 to 70%
Nc1nnc(-c2ccccc2O)cc1N1CC2CCC(C1)N2c1ccnc(C#CCN2CC(N3CCOCC3)C2)c1 [Compound 229]; 30 to 70%
Nc1nnc(-c2ccccc2O)cc1N1CC2CCC(C1)N2c1ccnc(C#CCN2CCC3CCC2C3)c1 (stereo not shown) [Compound 221]; 30 to 70%

Read the next record carefully.
q: Which Dmax value belongs to Nc1nnc(-c2ccccc2O)cc1N1CC2CCC(C1)N2c1ccnc(C#CCN2CCC3OCCC3C2)c1 (stereo not shown) [Compound 145] ?
a: 0 to 30%
